From: patent US20260215418A1

// reported Mortality %/time (h) (application) per item
- Tested on: Blatta orientalis
- measurement_conditions: Table 37; Blatta orientalis; 48 h; application ^; concentrations in mg/ml in label

>>> print(df.to_string())
                                   compound    result
0  CCCCC(CC)COC(=O)OCC(CC)CCCC (centres unmarked) [Composition 17b, Bis(2-ethyl-hexyl)-carbonate]  0/48 ^ %
1  CCCCCCCC/C=C\CCCCCCCCOC(C)=O [Composition 25b, Oleyl acetate]  0/48 ^ %
2             CCCCC(O)CO (centres unmarked)  0/48 ^ %
3  CCCCCCCCOC(=O)OCCCCCCCC [Composition 18b, Dioctyl carbonate]  0/48 ^ %

Here's the next entry for you.
Query: Look at this compound and give its reported Mortality %/time (h) (application). COP(=O)(OC)SCn1c(=O)oc2cc(Cl)cnc21 [Composition 23b, Azamethiphos]
Reply: 17/48 ^ %

* * *

- Tested on: Musca domestica L.
- test_protocol: Contact test on non-porous tile, Musca domestica
- Type: in vivo
- measurement_conditions: Musca domestica; single substance alone, 0.68 mg/ml; 48 h; read-out: Mortality %/time (h)
measured_property: mortality at 680 µg/mL
Answer format: number, then unit.

Query: Look at this compound and give its reported mortality at 680 µg/mL. `OCCCCCCCCO`
Reply: 0%

Query: Look at this compound and give its reported mortality at 680 µg/mL. CCCCCCCCCCC(O)CO (stereo not drawn)
Reply: 0%

Query: Look at this compound and give its reported mortality at 680 µg/mL. `CCCCCCCCCCCCO`
Reply: 4%
